# target-entity: Serine/threonine-protein kinase PLK1 (Homo sapiens) (UniProt P53350)
# Sequence (P53350 whole entry, looked up, the tested form may be a part): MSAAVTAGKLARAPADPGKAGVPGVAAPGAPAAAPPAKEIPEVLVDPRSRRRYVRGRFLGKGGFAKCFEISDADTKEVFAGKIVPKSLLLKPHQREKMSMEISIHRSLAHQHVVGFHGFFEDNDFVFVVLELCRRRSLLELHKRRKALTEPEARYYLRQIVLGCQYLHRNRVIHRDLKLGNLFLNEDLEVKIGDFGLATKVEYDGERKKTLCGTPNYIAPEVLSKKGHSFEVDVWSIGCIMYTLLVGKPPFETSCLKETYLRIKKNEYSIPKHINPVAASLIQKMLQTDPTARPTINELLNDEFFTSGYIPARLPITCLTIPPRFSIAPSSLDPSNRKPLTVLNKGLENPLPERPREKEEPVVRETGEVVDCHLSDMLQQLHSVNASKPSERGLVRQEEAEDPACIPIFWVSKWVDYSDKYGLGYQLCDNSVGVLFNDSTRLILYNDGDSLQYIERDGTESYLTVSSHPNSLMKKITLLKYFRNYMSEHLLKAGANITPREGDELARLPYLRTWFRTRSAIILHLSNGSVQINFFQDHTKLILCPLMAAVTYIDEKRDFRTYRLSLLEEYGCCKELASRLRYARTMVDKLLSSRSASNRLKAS
# assay-comment: qHTS for Inhibitors of PLK1-PDB (polo-like kinase 1 - polo-box domain): Primary Screen; note: series mostly up to about 57 µM; % is set by controls: 0 for no effect and ±100 for the full control effect; nearly all actives have a fitted effect of over 65% in size
# condition-info: Plk1 PBD binding of FITC phosphopeptide, fluorescence polarization
# Text: The polo-like kinase 1 (Plk1) is a member of a conserved subfamily of serine / threonine protein kinases that plays a pivotal roles in cell proliferation. It has a C-terminal non-catalytic region called the polo-box domain (PBD) that plays a crucial role in the subcellular localization of the Plk1. […] This project employed a fluorescence polarization (FP) assay using a FITC-conjugated phospho-9-mer (p-9-mer) peptide and purified human Plk1 PBD protein. […]
Screen size: about 360,000 compounds; about 10,000 (2.8%) were called active. Inconclusive results (about 4%) are left out. For the sample, actives were picked, then their nearest neighbours and some compounds at random.
max response, negative = inhibition listing for selected compounds.
// units = %; emit number, no label

{"compound": "COc1ccccc1OC(=O)c1ccc(C)c(S(=O)(=O)N2CCOCC2)c1", "target-entity": "Serine/threonine-protein kinase PLK1 (Homo sapiens) (UniProt P53350)", "units-of-measure": "%", "max response, negative = inhibition": -17.4}

query: Return reported max response, negative = inhibition; argument: O=C(CCCn1c(=O)[nH]c2cc(Cl)ccc2c1=O)N1CCC2(CC1)OCCO2
result: -6.33

query: Return reported max response, negative = inhibition; argument: C/C=C/CC1(CC)C(=O)NC(=S)NC1=O
result: -7.94

query: Return reported max response, negative = inhibition; argument: CCC(C)(O)C(=O)OC1C(=O)OC2CC3C(C)=CC(=O)C(O)C3(C)C3C4(O)OCC23C1C(C)C4O (stereo not drawn)
result: -4.99

query: Return reported max response, negative = inhibition; argument: N#CC1=C(N)Oc2c(c(=O)oc3ccccc23)C1c1ccccc1OC(=O)c1cccs1 (stereo not drawn)
result: -2.78

query: Return reported max response, negative = inhibition; argument: Cc1cccc(NC(=O)OC2CN3CCC2CC3)c1 (stereo not drawn)
result: 3.5

query: Return reported max response, negative = inhibition; argument: CCC(=NCc1ccco1)c1c(O)n(Cc2ccccc2)c(=O)[nH]c1=O
result: -18.9

query: Return reported max response, negative = inhibition; argument: CCOC(=O)C1(Cc2ccc(Cl)cc2)CCN(C(C)CCn2cccn2)CC1 (stereo not drawn)
result: -2.75
